FYI, the data here is from PubChem BioAssay AID504339.

molecular target: Lysine-specific demethylase 4A (Homo sapiens) (UniProt O75164); assay: qHTS Assay for Inhibitors of JMJD2A-Tudor Domain; conditions: AlphaScreen JMJD2A-Tudor / H3K4me3 peptide binding; series mostly up to 114 µM; further: nearly all actives have a fitted effect of over 50% in size
Sequence (O75164 whole entry, looked up, the tested form may be a part): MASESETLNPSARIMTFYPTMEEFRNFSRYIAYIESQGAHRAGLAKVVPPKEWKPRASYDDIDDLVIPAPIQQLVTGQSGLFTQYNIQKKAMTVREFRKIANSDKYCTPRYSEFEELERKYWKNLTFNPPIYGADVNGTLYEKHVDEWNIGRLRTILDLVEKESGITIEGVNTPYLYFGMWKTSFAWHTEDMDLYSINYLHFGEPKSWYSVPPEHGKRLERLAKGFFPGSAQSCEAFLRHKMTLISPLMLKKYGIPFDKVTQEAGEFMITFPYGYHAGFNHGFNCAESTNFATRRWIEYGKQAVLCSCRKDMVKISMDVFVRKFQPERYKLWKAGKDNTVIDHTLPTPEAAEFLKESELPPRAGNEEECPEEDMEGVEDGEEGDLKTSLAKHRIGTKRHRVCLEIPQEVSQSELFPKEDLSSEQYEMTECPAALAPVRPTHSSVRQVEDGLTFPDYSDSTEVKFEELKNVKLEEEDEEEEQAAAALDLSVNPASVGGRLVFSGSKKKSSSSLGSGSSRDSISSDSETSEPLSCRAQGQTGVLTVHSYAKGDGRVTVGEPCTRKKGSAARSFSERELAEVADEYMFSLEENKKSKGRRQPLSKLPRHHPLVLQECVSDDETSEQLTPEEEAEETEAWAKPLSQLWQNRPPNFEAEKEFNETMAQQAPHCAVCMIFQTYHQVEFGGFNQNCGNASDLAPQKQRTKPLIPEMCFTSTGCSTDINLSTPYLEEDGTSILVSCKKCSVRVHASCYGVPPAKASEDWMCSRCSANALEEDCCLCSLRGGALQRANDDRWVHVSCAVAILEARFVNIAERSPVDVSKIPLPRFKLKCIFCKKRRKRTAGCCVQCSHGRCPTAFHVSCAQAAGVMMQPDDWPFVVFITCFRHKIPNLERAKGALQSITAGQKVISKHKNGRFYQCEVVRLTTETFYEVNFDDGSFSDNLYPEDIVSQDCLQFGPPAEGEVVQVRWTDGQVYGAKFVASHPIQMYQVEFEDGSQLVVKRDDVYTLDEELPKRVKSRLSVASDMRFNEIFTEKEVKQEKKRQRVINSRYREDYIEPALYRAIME
The campaign covered roughly 390,000 compounds. About 17,000 (4.4%) were called active. About 8% were inconclusive and are not listed. The call rests on the fitted dose curve; in most records, active means well fitted inhibition curve with a large enough effect; inconclusive means small, poorly fitted or top-dose-only effect; inactive means no such curve, though single readings can be large or run the other way. The entries come from a sample that favours actives as a whole.
Give one outcome, nothing more. List: active, inactive

molecule=COc1ccccc1/C=N/N1CCN(Cc2ccccc2Cl)CC1 class_name=active
molecule=COC(=O)c1ccc(/C=N/OCC(=O)Nc2cc(F)ccc2F)cc1 class_name=inactive
molecule="CCOc1ccc(NC(=O)CC2C(=O)N(c3cccc(OC)c3)C(=O)N2C2CCCCC2)cc1 (stereo not given)" class_name=inactive
molecule=COC(=O)c1ccc(/C=N/NC(=O)C(=O)N2CCCCCC2)cc1 class_name=inactive
molecule=CCCS(=O)(=O)c1ncc(Cl)c(C(=O)Nc2scc(-c3ccccc3)c2C(=O)OCC)n1 class_name=inactive

[in] Write down the call the test reported for this molecule. Item: O=S1(=O)CCN(Cc2ccccc2Cl)CC1
[out] inactive

[in] And the next one, C#CCOCCOCCOCCNc1nc(N2CCN(C(=O)C([C@@H](C)CC)n3cc(C(N)COC(=O)C(F)(F)F)nn3)CC2)nc(N2CCN(C(=O)[C@H](CCCCN)n3cc(C(N)CC(C)C)nn3)CC2)n1 (stereo not given in full) ?
[out] active

[in] Can you handle COc1ccc(CCNC(=O)CCc2c(C)nc3c(c(C)nn3-c3ccc(C)c(C)c3)c2C)c(OC)c1OC next?
[out] inactive

[in] Repeat for the following molecule: O=C(OCN1C(=O)c2ccccc2C1=O)/C(=C\c1ccco1)NC(=O)c1ccccc1
[out] inactive

[in] Also check Cc1cc(C)cc(NC(=O)CCCc2nc(-c3ccccc3Cl)no2)c1
[out] inactive

---

biological target: Lysine-specific demethylase 4A (Homo sapiens) (UniProt O75164); test: qHTS Assay for Inhibitors of JMJD2A-Tudor Domain; conditions: AlphaScreen JMJD2A-Tudor / H3K4me3 peptide binding; series mostly up to 114 µM; further: nearly all actives have a fitted effect of over 50% in size
Screen size: about 390,000 compounds; about 17,000 (4.4%) were called active. Roughly 8% stayed inconclusive and do not appear here. Calls follow the shape of the dose curve; as a rule, active = well fitted inhibition curve with a large enough effect; inconclusive = small, poorly fitted or top-dose-only effect; inactive = no such curve, though single readings can be large or run the other way. For the sample, actives were picked, then their nearest neighbours and some compounds at random.
Please state which outcome applies, choosing from 1.0 (active), 0.0 (inactive)

Past entries and their recorded results:
molecule="Cc1cccc(N2CCN(C(=O)c3ccccc3NC(=O)C3CCCCC3C(=O)O)CC2)c1 (stereo not given)" class_name=0.0
molecule="Cc1ccc2cccc(NC(=O)C(C)Oc3ccc(C)c(C)c3)c2n1 (stereo not given)" class_name=0.0
molecule=Cc1cccc(C(=O)Nc2ccc(-c3nc4ncccc4o3)cc2C)c1 class_name=0.0
molecule=COc1ccc(C2C3=C(CCCC3=O)N(CC(=O)O)C3=C2C(=O)CCC3)cc1 class_name=0.0
molecule=CC(=O)Oc1ccc(OC(C)=O)c2c1C1C=CC2CC1 class_name=1.0

[in] Which outcome was assigned to Cc1ccccc1OCC(=O)Nc1c(C(=O)Nc2ccccc2F)oc2ccccc12 in this test?
[out] 0.0

[in] Now give it for Cc1cccc(N2CCN(c3ccc(C(=O)O)cc3NC(=O)c3ccccc3F)CC2C)c1 (stereo not given) too.
[out] 1.0

[in] Next molecule up: CCCCNC(=O)C1CCC(=O)N1CCc1ccccc1 (stereo not given)
[out] 0.0

[in] Subsequent entry: O=C(NCc1ccc2c(c1)CCN2C(=O)c1ccccc1)c1ccccc1
[out] 0.0

[in] Same for COc1ccc(C2=NC(c3ccncc3)=Nc3ccc(Br)cc3N2)cc1
[out] 1.0

---

target: Lysine-specific demethylase 4A (Homo sapiens) (UniProt O75164); experiment: qHTS Assay for Inhibitors of JMJD2A-Tudor Domain; conditions: AlphaScreen JMJD2A-Tudor / H3K4me3 peptide binding; series mostly up to 114 µM; further: nearly all actives have a fitted effect of over 50% in size
The whole screen tested about 390,000 compounds, of which about 17,000 (4.4%) were called active. Inconclusive results (about 8%) are left out. Calls come from the whole dose curve; as a rule, active = well fitted inhibition curve with a large enough effect; inconclusive = small, poorly fitted or top-dose-only effect; inactive = no such curve, though single readings can be large or run the other way. For the sample, actives were picked, then their nearest neighbours and some compounds at random.
Write down the outcome that applies. Available outcomes: Yes for active, No for inactive

Worked examples, 2 molecules total:
molecule="CC(=O)NC(Cc1ccccc1)C(=O)NC1CCN(c2ncccc2[N+](=O)[O-])CC1 (centres undefined)" class_name=No
molecule=c1coc(CCNc2ncnc3ccc(-c4ccc5c(c4)OCO5)cc23)c1 class_name=Yes

[in] Call for entry CC1CCCC(C)N1C(=O)CN1CCN(c2nc(-c3ccc(F)cc3)cs2)CC1 (centres undefined) :
[out] Yes

[in] Follow-up item: COc1ccc(S(=O)(=O)NCc2ccc(C(=O)N(C)Cc3ccco3)cc2)cc1
[out] No

---

molecular target: Lysine-specific demethylase 4A (Homo sapiens); assay: qHTS Assay for Inhibitors of JMJD2A-Tudor Domain; conditions: AlphaScreen JMJD2A-Tudor / H3K4me3 peptide binding; series mostly up to 114 µM; further: nearly all actives have a fitted effect of over 50% in size; further: potency means the concentration at half of the fitted maximal effect
Among all 390,000 compounds or so, about 17,000 (4.4%) were called active. About 8% were inconclusive and are not listed. For the sample, actives were picked, then their nearest neighbours and some compounds at random.
readout.name: Potency

molecule=Cc1ccc(-c2ccnc3[nH]n(-c4ccccc4)c(=O)c23)cc1 reported_measurement=inactive
molecule="Cc1cccc(C(=O)N2CCc3c([nH]c4ccccc34)C2CC(C)C)n1 (stereo not drawn)" reported_measurement=inactive
molecule="CC(=O)N1c2ccc(S(=O)(=O)NCCC(=O)N(C)C3CCCCC3)cc2CC1C (stereo not drawn)" reported_measurement="14.1 µM (active)"
molecule="CCOc1ccc(C2C(=O)N(C3CCCCC3)CC(=O)N2CCC2=CCCCC2)cc1OC (stereo not drawn)" reported_measurement=inactive
molecule="COc1ccc(-c2cc(C(=O)NC(C(=O)O)C(C)C)c(C)o2)cc1OC (stereo not drawn)" reported_measurement=inactive

[in] Field request: Potency | item: COc1cc(F)c(S(=O)(=O)N2CCCN(S(=O)(=O)c3ccc(N)cc3)CC2)c(F)c1
[out] inactive

[in] Lookup CCCCc1ccc(NC(=O)NCc2cccnc2)cc1
[out] inactive

[in] And O=C(Nc1ccc(S(=O)(=O)Nc2ncccn2)cc1)C12CC3CC(CC(C3)C1)C2 ?
[out] inactive

[in] Cool, now COC(=O)c1ccc(NC(=S)NN2CCOCC2)cc1
[out] inactive

[in] Please give the result for Cc1ccc2c(c1)C(c1ccccc1)N(C(=O)c1ccc(F)cc1)CC(=O)N2 (stereo not drawn) too.
[out] inactive

[in] Param item: Cc1cccc(N=Nc2c(O)[nH]c3ccc(F)cc23)c1
[out] inactive

[in] Same question, COc1ccc(-c2cc(C(=O)Nc3sc4c(c3C(N)=O)CCCC4)no2)cc1 this time
[out] inactive

[in] COc1ccc(-c2cc(=O)oc3cc(OCC(=O)N[C@@H](Cc4c[nH]c5ccccc45)C(=O)O)ccc23)cc1 , same question.
[out] inactive

[in] Next entry: Cc1cc(OCC(=O)NCC2(N(C)C)CCCCC2)cc(C)c1Cl
[out] inactive

---

target: Lysine-specific demethylase 4A (Homo sapiens) (UniProt O75164); assay: qHTS Assay for Inhibitors of JMJD2A-Tudor Domain; conditions: AlphaScreen JMJD2A-Tudor / H3K4me3 peptide binding; series mostly up to 114 µM; further: nearly all actives have a fitted effect of over 50% in size
About 17,000 (4.4%) of roughly 390,000 compounds were called active. Another 8% or so got no clear call; they are omitted. Calls come from the whole dose curve; as a rule, active = well fitted inhibition curve with a large enough effect; inconclusive = small, poorly fitted or top-dose-only effect; inactive = no such curve, though single readings can be large or run the other way. The sample holds actives, similar compounds and a random draw of the others, so the mix is not that of the screen.
Your response should consist of one outcome taken from yes (1) for active, no (0) for inactive

structure_notation=C#CCOCCOCCOCCNc1nc(N2CCN(C(=O)CCCCCCCCCCNC(=O)[C@H](CCCCN)n3cc(C)nn3)CC2)nc(N2CCN(C(=O)CCCCCCCCCCNC(=O)[C@H](CO)n3cc(CCCSC)nn3)CC2)n1 tested_system="Lysine-specific demethylase 4A (Homo sapiens) (UniProt O75164)" class_name="yes (1)"
structure_notation=CCOc1cccc(C(=O)Nc2nnc(S(=O)(=O)N(C)c3ccc(C)cc3)s2)c1 tested_system="Lysine-specific demethylase 4A (Homo sapiens) (UniProt O75164)" class_name="no (0)"
structure_notation=Cc1cccc(NC(=O)CN(c2ccc(C(C)C)cc2)S(=O)(=O)c2c(C)nn(C)c2C)c1C tested_system="Lysine-specific demethylase 4A (Homo sapiens) (UniProt O75164)" class_name="no (0)"

Field: next compound
[in] Which result was noted for this compound in the test: CN(C)c1nc(Nc2ccc(Cl)c(Cl)c2)nc(N(C)C)n1
[out] yes (1)

---

target: Lysine-specific demethylase 4A (Homo sapiens); test: qHTS Assay for Inhibitors of JMJD2A-Tudor Domain; details: AlphaScreen JMJD2A-Tudor / H3K4me3 peptide binding; series mostly up to 114 µM; further: nearly all actives have a fitted effect of over 50% in size
Hit rate of the full screen: of about 390,000 compounds, about 17,000 (4.4%) were called active. Not shown: some 8% with an inconclusive outcome. The call rests on the fitted dose curve; in most records, active means well fitted inhibition curve with a large enough effect; inconclusive means small, poorly fitted or top-dose-only effect; inactive means no such curve, though single readings can be large or run the other way. The full list was thinned out, with actives kept by preference.
# output must be one of active, inactive

Answered cases to consult:
compound=N#Cc1c(N2CCCCC2)nc(N)c2c(N)nc(SCC(=O)O)cc12 class_name=active
compound=Cc1cc(C)nc(N(C#N)CC(=O)Nc2ccccc2)n1 class_name=inactive
compound=CC(=O)Nc1ccc(S(=O)(=O)N2CCN(C3CCCCCCC3)CC2)cc1 class_name=inactive
compound="CCCNC(=O)C(CC)n1nc(CC)n2c(cc3oc(C)cc32)c1=O (stereo not given)" class_name=inactive
compound="CC(Sc1nnc2c(n1)C1CCC2(C)C1(C)C)C(=O)Nc1ccccc1 (stereo not given)" class_name=inactive
compound=Cc1ccc(S(=O)(=O)N2CCC(C(=O)N3CCCCCCC3)CC2)cc1 class_name=inactive
compound=N#Cc1c(C(F)(F)F)cc(-c2ccc(Cl)cc2)nc1SCC(=O)O class_name=inactive
compound=CCN(CC)CCNC(=O)c1cc2c(=O)oc3ccc(C)cc3c2s1 class_name=inactive

[in] // outcome(item) with item = COc1ccc(N2CCN(C(=O)C3CCN(C(=O)c4ccccc4Cl)CC3)CC2)cc1
[out] inactive

[in] Param item: Cc1ccc(S(=O)(=O)N2CCCC(C(=O)N3CCN(C)CC3)C2)cc1 (stereo not given)
[out] active
